The reported measurements were obtained from patent US20220127267A1.

I'd be grateful if you could share measured AC50 for these entries.
Target: PKR K410E (Homo sapiens, UniProt P30613, K410E)
Sequence (P30613 whole entry K410E): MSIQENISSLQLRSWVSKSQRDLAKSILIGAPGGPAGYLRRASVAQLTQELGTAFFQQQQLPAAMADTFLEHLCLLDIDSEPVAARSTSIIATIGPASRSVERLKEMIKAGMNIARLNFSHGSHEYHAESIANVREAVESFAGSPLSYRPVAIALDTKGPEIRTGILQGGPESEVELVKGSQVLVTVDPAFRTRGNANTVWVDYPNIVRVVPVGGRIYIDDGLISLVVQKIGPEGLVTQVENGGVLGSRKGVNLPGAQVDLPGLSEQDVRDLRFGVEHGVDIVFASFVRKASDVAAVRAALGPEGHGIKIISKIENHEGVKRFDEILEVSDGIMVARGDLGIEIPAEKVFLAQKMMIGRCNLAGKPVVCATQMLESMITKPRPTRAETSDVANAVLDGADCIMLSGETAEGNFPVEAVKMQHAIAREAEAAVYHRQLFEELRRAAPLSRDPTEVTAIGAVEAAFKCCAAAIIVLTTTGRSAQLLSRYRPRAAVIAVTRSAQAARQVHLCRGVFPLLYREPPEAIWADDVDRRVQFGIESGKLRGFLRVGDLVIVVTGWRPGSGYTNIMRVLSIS
Assay: PKR Mutant Assay (K410E), LDH-coupled, absorbance 340 nm
Format: biochemical
Settings: mutant PKR K410E enzyme activation
Description: PKR (WT or mutant) enzyme stock solution was diluted to prepare a 1.25× Reaction Mix (without ADP). 1 μL of test compound was first added to the wells followed by 40 μL of 1.25× Reaction Mix (without ADP) and incubated at room temperature (25° C.) for 60 min. The reaction was initiated with 10 μL ADP, bringing the final Reaction Mix to 1x, and the reaction progress was measured as changes in absorbance at 340 nm wavelength at room temperature. […]

Measured AC50 of `COc1cccc(Cn2ncc3c(c(C(N)=O)n4cc(C)sc34)c2=O)c1` : < 300 nM

Measured AC50 of `Cc1c2c(=O)n(Cc3ccn(C)n3)ncc2c2sc(Cc3cc[nH]n3)cn12` : < 300 nM

Measured AC50 of `COc1cccc(Cn2ncc3c4cc(O)ccc4n(C)c3c2=O)c1` : > 800 nM

Measured AC50 of `Cn1c2ccc(S(=O)(=O)c3ccccc3)cc2c2cnn(Cc3cccc(C(N)=O)c3)c(=O)c21` : > 800 nM

Measured AC50 of `COc1cccc(Cn2ncc3c(c(C#N)n4cc(C)sc34)c2=O)c1` : < 300 nM

====

target: PK R510Q (Homo sapiens, UniProt P30613, R510Q); assay: PKR Mutant Assay (R510Q), LDH-coupled, absorbance 340 nm; format: biochemical; settings: mutant PKR R510Q enzyme activation
Sequence (P30613 whole entry R510Q): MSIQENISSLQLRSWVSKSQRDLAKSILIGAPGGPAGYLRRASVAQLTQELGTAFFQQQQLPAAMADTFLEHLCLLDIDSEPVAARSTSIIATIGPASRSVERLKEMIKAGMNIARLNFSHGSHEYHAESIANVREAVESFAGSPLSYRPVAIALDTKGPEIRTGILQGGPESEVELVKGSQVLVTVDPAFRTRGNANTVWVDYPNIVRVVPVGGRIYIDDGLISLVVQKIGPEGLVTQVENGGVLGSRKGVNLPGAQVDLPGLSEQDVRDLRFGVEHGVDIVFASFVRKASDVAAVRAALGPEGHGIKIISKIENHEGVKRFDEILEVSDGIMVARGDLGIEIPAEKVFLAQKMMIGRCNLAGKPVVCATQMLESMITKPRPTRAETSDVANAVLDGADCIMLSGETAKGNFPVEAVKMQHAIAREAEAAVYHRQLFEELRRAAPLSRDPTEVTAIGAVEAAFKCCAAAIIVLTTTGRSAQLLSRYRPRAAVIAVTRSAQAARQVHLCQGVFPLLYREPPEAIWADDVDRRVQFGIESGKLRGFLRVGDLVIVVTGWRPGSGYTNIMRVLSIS
value-kind: AC50

Measured AC50 of Cn1cc(Cc2ccc3c4cnn(Cc5cccc(C(N)=O)c5)c(=O)c4n(C)c3c2)cn1 [Cpd 62] : > 800 nM

Measured AC50 of Cc1c2c(=O)n(Cc3cccc(C#N)c3)ncc2c2sc(Cc3ncco3)cn12 [Cpd 19] : > 800 nM

Measured AC50 of COc1cccc(Cn2ncc3c4cc(Cc5ccccc5)ccc4n(C)c3c2=O)c1 [Cpd 34] : > 800 nM

Measured AC50 of C=Cc1ccc2c(c1)c1cnn(Cc3cccc(OC)c3)c(=O)c1n2C [Cpd 39] : > 800 nM

Measured AC50 of Cn1ccc(Cn2ncc3c4cc(Cc5cscn5)ncc4n(C)c3c2=O)n1 [Cpd 67] : < 300 nM

Measured AC50 of Cc1cn2c(C)c3c(=O)n(Cc4ccn(C)n4)ncc3c2s1 [Cpd 21] : < 300 nM

Measured AC50 of COc1cccc(Cn2ncc3c4ccc(C#N)cc4n(C)c3c2=O)c1 [Cpd 47] : < 300 nM

====

biological target: PKM2 WT (Homo sapiens); assay: PKM2 Assay, LDH-coupled, absorbance 340 nm; type: biochemical; settings: wild type PKM2 enzyme activation
Sequence (P14618 whole entry): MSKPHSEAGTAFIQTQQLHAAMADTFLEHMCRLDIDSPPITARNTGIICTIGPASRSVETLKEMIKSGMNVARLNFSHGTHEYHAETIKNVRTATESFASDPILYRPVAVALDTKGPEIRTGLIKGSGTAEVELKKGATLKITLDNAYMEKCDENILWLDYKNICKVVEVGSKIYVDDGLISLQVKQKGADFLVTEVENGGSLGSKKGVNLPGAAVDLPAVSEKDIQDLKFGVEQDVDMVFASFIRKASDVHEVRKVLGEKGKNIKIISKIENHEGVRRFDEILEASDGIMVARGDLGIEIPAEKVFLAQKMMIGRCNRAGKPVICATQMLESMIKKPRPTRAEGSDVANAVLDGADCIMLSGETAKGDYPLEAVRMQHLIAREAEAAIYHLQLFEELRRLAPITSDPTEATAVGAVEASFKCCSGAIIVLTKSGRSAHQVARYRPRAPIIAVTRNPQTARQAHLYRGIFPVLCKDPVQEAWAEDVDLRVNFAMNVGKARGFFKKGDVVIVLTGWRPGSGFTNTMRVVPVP
I'd be grateful if you could share measured AC50 for these entries.

Measured AC50 of `COc1cccc(Cn2ncc3c4cc(CO)ccc4n(C)c3c2=O)c1` : 0.301 to 0.8 µM

Measured AC50 of `COc1cccc(Cn2ncc3c4sc(Cc5ccccc5)cc4n(C)c3c2=O)c1` : < 0.3 µM

Measured AC50 of `COc1cccc(Cn2ncc3c4cc(O)ccc4n(C)c3c2=O)c1` : 0.301 to 0.8 µM

Measured AC50 of `COc1cccc(Cn2ncc3c4c(C)cccc4n(C)c3c2=O)c1` : > 0.8 µM

Measured AC50 of `Cn1ccc(Cn2ncc3c4cc(Cc5cscn5)ccc4n(C)c3c2=O)n1` : > 0.8 µM

Measured AC50 of `COc1cccc(Cn2ncc3c4c(Cc5ccccc5)cccc4n(C)c3c2=O)c1` : > 0.8 µM

====

molecular target: PKR WT (Homo sapiens); test: PKR enzyme assay (WT), LDH-coupled, absorbance 340 nm; type: biochemical; settings: wild type PKR enzyme activation
Sequence (P30613 whole entry): as the sequence (P30613 whole entry K410E) above, with E410K counted along it
I'd be grateful if you could share measured AC50 for these entries.

Measured AC50 of `COc1cccc(Cn2ncc3c4cc(O)ccc4n(C)c3c2=O)c1` : > 0.8 µM

Measured AC50 of `Cc1nc2c3cnn(Cc4ccccc4)c(=O)c3n(C)c2s1` : > 0.8 µM

Measured AC50 of `COc1cccc(Cn2ncc3c(c(C#CCO)n4cc(C)sc34)c2=O)c1` : 0.301 to 0.8 µM

Measured AC50 of `COc1cccc(Cn2ncc3c(c(C(F)(F)F)n4cc(C)sc34)c2=O)c1` : < 0.3 µM

Measured AC50 of `Cc1cn2c(C)c3c(=O)n(Cc4ccn(C)n4)ncc3c2s1` : < 0.3 µM

Measured AC50 of `Cc1c2c(=O)n(Cc3ccn(C)n3)ncc2c2sc(CO)cn12` : < 0.3 µM

Measured AC50 of `COc1cccc(Cn2ncc3c4ccncc4n(C)c3c2=O)c1` : 0.301 to 0.8 µM

Measured AC50 of `Cc1c2c(=O)n(Cc3cscn3)ncc2c2sc(Cc3cccc4c[nH]nc34)cn12` : < 0.3 µM

Measured AC50 of `Cc1c2c(=O)n(Cc3ccn(C)n3)ncc2c2sc(Cc3cc[nH]n3)cn12` : < 0.3 µM

Measured AC50 of `Cn1ccc(Cn2ncc3c4cc(Cc5cscn5)ccc4n(C)c3c2=O)n1` : > 0.8 µM

====

target: PKR K410E (Homo sapiens, UniProt P30613, K410E); experiment: PKR Mutant Assay (K410E), LDH-coupled, absorbance 340 nm; type: biochemical; settings: mutant PKR K410E enzyme activation
I'd be grateful if you could share measured AC50 for these entries.

The reported AC50 value, PKR K410E (Homo sapiens, UniProt P30613, K410E), for COc1cccc(Cn2ncc3c4sc(Cc5ccccc5)cc4n(C)c3c2=O)c1 [Cpd 4] reads < 300 nM

The reported AC50 value, PKR K410E (Homo sapiens, UniProt P30613, K410E), for Cc1c2c(=O)n(Cc3ccn(C)n3)ncc2n2cc(CO)sc12 [Cpd 23] reads > 800 nM

The reported AC50 value, PKR K410E (Homo sapiens, UniProt P30613, K410E), for COc1cccc(Cn2ncc3c4cc(CO)ccc4n(C)c3c2=O)c1 [Cpd 44] reads > 800 nM

The reported AC50 value, PKR K410E (Homo sapiens, UniProt P30613, K410E), for Cc1c2c(=O)n(Cc3ccn(C)n3)ncc2c2sc(CO)cn12 [Cpd 14] reads < 300 nM

The reported AC50 value, PKR K410E (Homo sapiens, UniProt P30613, K410E), for COC(=O)c1ccc2c3cnn(Cc4cccc(OC)c4)c(=O)c3n(C)c2c1 [Cpd 40] reads < 300 nM

====

target: PK R510Q (Homo sapiens, UniProt P30613, R510Q); assay: PKR Mutant Assay (R510Q), LDH-coupled, absorbance 340 nm; type: biochemical; conditions: mutant PKR R510Q enzyme activation
I'd be grateful if you could share measured AC50 for these entries.

Measured AC50 of `Cc1c2c(=O)n(Cc3ccn(C)n3)ncc2c2sc(CO)cn12` : < 300 nM

Measured AC50 of `Cn1ccc(Cn2ncc3c4cc(Cc5cscn5)ccc4n(C)c3c2=O)n1` : > 800 nM

Measured AC50 of `COc1cccc(Cn2ncc3c(c(C)n4cc(C)sc34)c2=O)c1` : < 300 nM

Measured AC50 of `Cc1c2c(=O)n(Cc3ccn(C)n3)ncc2c2sc(Cc3cc[nH]n3)cn12` : < 300 nM
